tested on: apRAD51C-CTD-1 R258H (Alvinella pompejana); assay: fluorescence polarization; conditions: FP: 20 mM HEPES pH 8, 80 mM NaCl, 2.5 mM ATP, 2.5 mM MgCl2, 1 mM DTT, 0.1 mg/mL BSA, 10 nM DNA, 37 C 20 min, EMSA: 20 mM Tris pH 8.0, 150 mM KCl, 4 C 15 min

[
  {
    "residue_string": "TTTTTTTTTTTTTTTTTTTT [poly-20dT]",
    "Kd (µM)": 36.5
  }
]

Value source: paper PMC10366140
